Data origin, for the record: patent US20230416248A1

TARGET ENTITY: BRM (Homo sapiens)
Construct: made in house; host or cells: High Five insect cells
Sequence (P51531 whole entry): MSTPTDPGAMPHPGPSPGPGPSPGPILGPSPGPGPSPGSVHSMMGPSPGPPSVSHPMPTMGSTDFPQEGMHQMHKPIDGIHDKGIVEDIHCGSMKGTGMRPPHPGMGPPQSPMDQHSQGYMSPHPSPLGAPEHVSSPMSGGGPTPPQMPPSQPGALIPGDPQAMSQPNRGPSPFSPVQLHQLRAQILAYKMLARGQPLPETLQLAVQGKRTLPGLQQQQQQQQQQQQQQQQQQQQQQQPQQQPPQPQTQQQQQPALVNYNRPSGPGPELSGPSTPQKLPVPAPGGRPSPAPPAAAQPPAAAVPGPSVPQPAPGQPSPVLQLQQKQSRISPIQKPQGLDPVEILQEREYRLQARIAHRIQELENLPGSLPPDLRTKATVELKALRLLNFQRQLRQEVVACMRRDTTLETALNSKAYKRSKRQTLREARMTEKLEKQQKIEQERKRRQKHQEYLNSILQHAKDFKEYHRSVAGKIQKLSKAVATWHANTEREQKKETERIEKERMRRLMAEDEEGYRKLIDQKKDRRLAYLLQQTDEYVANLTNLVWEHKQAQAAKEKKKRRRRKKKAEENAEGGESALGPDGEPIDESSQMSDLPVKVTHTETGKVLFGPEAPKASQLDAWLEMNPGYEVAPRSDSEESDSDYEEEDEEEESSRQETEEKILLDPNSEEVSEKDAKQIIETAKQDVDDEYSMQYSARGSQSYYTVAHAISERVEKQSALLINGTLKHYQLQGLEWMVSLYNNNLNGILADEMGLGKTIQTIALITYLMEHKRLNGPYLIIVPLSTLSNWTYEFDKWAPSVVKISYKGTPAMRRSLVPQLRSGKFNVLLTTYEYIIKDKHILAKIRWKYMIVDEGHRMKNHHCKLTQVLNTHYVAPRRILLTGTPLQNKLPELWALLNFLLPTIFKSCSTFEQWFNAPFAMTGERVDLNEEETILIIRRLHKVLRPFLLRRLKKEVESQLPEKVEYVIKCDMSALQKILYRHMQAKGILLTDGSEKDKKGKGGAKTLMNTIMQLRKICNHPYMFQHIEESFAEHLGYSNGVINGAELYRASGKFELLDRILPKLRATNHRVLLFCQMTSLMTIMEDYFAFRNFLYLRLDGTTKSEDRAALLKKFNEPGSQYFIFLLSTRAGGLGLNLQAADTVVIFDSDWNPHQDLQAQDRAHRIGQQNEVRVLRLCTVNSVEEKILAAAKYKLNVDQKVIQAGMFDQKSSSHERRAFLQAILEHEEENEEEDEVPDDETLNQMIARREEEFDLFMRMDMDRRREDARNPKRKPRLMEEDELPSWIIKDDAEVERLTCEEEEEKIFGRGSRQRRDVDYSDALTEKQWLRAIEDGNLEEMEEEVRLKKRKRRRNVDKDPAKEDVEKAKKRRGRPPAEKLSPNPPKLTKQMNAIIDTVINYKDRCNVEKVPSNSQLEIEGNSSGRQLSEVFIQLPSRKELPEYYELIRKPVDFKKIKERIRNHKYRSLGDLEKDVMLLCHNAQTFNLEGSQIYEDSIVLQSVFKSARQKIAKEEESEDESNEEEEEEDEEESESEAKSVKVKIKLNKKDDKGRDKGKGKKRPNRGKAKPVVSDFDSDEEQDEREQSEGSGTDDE
TEST DETAILS: ATPase catalytic activity of BRM, ADP-Glo in vitro biochemical assay
PARTICULARS: ratio of BRG1 IC50 to BRM IC50
MEASUREMENT LABEL: Ratio*
Number only, please.

Record CO[C@@H]1CCS(=O)(=O)c2cc(C(=O)NCc3cc4nc(-c5cccc(N6C[C@@H](C)O[C@@H](C)C6)n5)ccc4cn3)ccc2C1 / BRM (Homo sapiens), Ratio* recorded as 2.83

Observed Ratio*, BRM (Homo sapiens), C[C@@H]1CN(c2cccc(-c3ccc4cnc(CNC(=O)c5ccc6c(c5)S(=O)(=O)[C@@H](C)CC6)cc4n3)n2)C[C@H](C)O1 : 24.25

The value of Ratio* recorded for COC[C@@H]1CCc2ccc(-c3ccc4cnc(CNC(=O)c5ccc6c(c5)S(=O)(=O)CCOC6)cc4n3)nc2N1C when tested on BRM (Homo sapiens) reads 9.82

The compound COc1nc(C(C)(F)F)ccc1-c1ccc2cnc(CNC(=O)c3cc(F)c4c(c3)S(=O)(=O)[C@@H](C)COC4)cc2n1 , when measured on BRM (Homo sapiens), yielded Ratio* of 18.97

Short answer on BRM (Homo sapiens) for COCCN(C)c1cccc(-c2ccc3cnc(CNC(=O)c4ccc5c(c4)S(=O)(=O)CCOC5)cc3n2)c1OC , Ratio*: 3.03

Sample C[C@H]1CCN(C)c2nc(-c3ccc4cnc(CNC(=O)c5ccc6c(c5)S(=O)(=O)CCOC6)cc4n3)ccc21 , system: BRM (Homo sapiens). Its Ratio* is 8.38

For COC[C@@H]1C[C@H]1N(C)c1cccc(-c2ccc3cnc(CNC(=O)c4ccc5c(c4)S(=O)(=O)CCOC5)cc3n2)n1 on BRM (Homo sapiens), measured Ratio* was 12.86
